# target.under.test: T1, Drosophila Numb PTB domain (aa 65-203) (Drosophila, UniProt P16554-1 65-203)
# T1 construct: Numb, Drosophila, PTB domain, residues 65-203; theoretical mass 15.7 kDa in the ultracentrifugation; also called dNumb PTB; Numb 65-203; source: E. coli BL21 (DE3), purified (Ni2+-NTA, SEC); not shown: His tag, N-terminal, cleaved
# T1 sequence (looked up): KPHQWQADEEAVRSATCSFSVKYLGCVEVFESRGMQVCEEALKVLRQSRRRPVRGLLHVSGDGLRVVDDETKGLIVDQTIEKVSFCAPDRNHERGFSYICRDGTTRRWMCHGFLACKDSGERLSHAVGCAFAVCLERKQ
# test.method.notes: ITC; Pon fragments (~0.5 mM) injected into PTB proteins (~0.05 mM); 20 °C; 50 mM Tris pH 8.0, 100 mM NaCl, 1 mM EDTA, 1 mM β-ME; one-site binding model
# setup.conditions: both partners purified
Square brackets hold non-standard residues; d marks the D form. Ends that are not written are not given here. pT = C[C@@H](OP(=O)(O)O)[C@H](N)C(=O)O
measured.parameter: Kd (µM)

a = ESCFTNAAFSS[pT]PKK (Pon, Drosophila; the peptide holds the A1 motif FTNAAF; the range is counted from N57 of the A1 motif; source: synthetic peptide) [pPon peptide]
b = KKREHACFENPGLNLELPEAQFNPYEVVRSATT (domain or fragment) [Pon A2B2 K148A]
Challenge: Larger number for Kd: a , or b ? Give the label under which the chosen entry appears.
Response given: a
